system: Enterobacter cloacae; conditions: Enterobacter cloacae FADDI-EC001; broth microdilution in CAMHB
Positions of bridges follow the written chain, without caps; N, C: chain ends. Non-standard residues stand in square brackets, D forms with d. Residues, ends and D or L forms follow the SMILES beside them. *: point of attachment. Benzoyl(3,5-Cl2) = O=C(c1cc(Cl)cc(Cl)c1)*; Phenylacetyl(3-Cl) = O=C(Cc1cccc(Cl)c1)*; X4 = O=C(c1ccc(Cl)c(Cl)c1)*; Dab = NCC[C@H](N)C(=O)O; Abu = CC[C@H](N)C(=O)O; Dap = NC[C@H](N)C(=O)O
Metric: Minimum inhibitory concentration, Ec FADDI-EC001 (mg/L)

{"Compound": "CC(C)C[C@H]1NC(=O)[C@H](CCN)NC(=O)[C@@H](NC(=O)[C@H](CN)NC(=O)[C@@H](NC(=O)[C@H](CCN)NC(=O)c2cc(Cl)cc(Cl)c2)[C@@H](C)O)CCNC(=O)[C@H]([C@@H](C)O)NC(=O)[C@H](CCN)NC(=O)[C@H](CCN)NC(=O)[C@H](C)NC1=O [Compound 117] ({Benzoyl(3,5-Cl2)}-[Dab]T[Dap][Dab][Dab][dL]A[Dab][Dab]T; lactam 4-C)", "Test target": "Enterobacter cloacae", "Numeric value": 0.25}
{"Compound": "CC[C@@H]1NC(=O)[C@@H](CC(C)C)NC(=O)[C@H](CCN)NC(=O)[C@@H](NC(=O)[C@H](CN)NC(=O)[C@@H](NC(=O)[C@H](CCN)NC(=O)c2ccc(Cl)c(Cl)c2)[C@@H](C)O)CCNC(=O)[C@H]([C@@H](C)O)NC(=O)[C@H](CCN)NC(=O)[C@H](CCN)NC1=O [Compound 71] (X4-[Dab]T[Dap][Dab][Dab][dL][Abu][Dab][Dab]T; lactam 4-C)", "Test target": "Enterobacter cloacae", "Numeric value": 1}
{"Compound": "CC(C)C[C@H]1NC(=O)[C@H](CCN)NC(=O)[C@@H](NC(=O)[C@H](CN)NC(=O)[C@@H](NC(=O)[C@H](CCN)NC(=O)Cc2cccc(Cl)c2)[C@@H](C)O)CCNC(=O)[C@H]([C@@H](C)O)NC(=O)[C@H](CCN)NC(=O)[C@H](CCN)NC(=O)[C@H]([C@@H](C)O)NC1=O [Compound 61] ({Phenylacetyl(3-Cl)}-[Dab]T[Dap][Dab][Dab][dL]T[Dab][Dab]T; lactam 4-C)", "Test target": "Enterobacter cloacae", "Numeric value": 0.25}

###

tested on: Acinetobacter baumannii
Positions of bridges follow the written chain, without caps; N, C: chain ends. Non-standard residues stand in square brackets, D forms with d. Residues, ends and D or L forms follow the SMILES beside them. *: point of attachment. Benzoyl(4-CF3) = O=C(c1ccc(C(F)(F)F)cc1)*; X7 = O=C(c1cc(F)cc(C(F)(F)F)c1)*; Tle = CC(C)(C)[C@H](N)C(=O)O; X19 = Cc1cc(Cl)cc(C(=O)*)c1; Decanoyl = CCCCCCCCCC(=O)*; Nonanoyl = CCCCCCCCC(=O)*; Heptanoyl = CCCCCCC(=O)*; Octanoyl = CCCCCCCC(=O)*; Dab = NCC[C@H](N)C(=O)O; X39 = O=C(Cc1ccccc1Cl)*; X43 = O=C(c1cccc(F)c1)*; Abu = CC[C@H](N)C(=O)O; Dap = NC[C@H](N)C(=O)O
Metric: Minimum inhibitory concentration, Ab A ATCC 17978

{"Compound": "CCCCCCC(=O)N[C@@H](CCN)C(=O)N[C@H](C(=O)N[C@@H](CN)C(=O)N[C@H]1CCNC(=O)[C@H]([C@@H](C)O)NC(=O)[C@H](CCN)NC(=O)[C@H](CCN)NC(=O)[C@H]([C@@H](C)O)NC(=O)[C@@H](CC(C)C)NC(=O)[C@H](CCN)NC1=O)[C@@H](C)O [Compound 44] (Heptanoyl-[Dab]T[Dap][Dab][Dab][dL]T[Dab][Dab]T; lactam 4-C)", "Test target": "Acinetobacter baumannii", "Result": "1 µg/mL"}
{"Compound": "CCCCCCCCCC(=O)N[C@@H](CCN)C(=O)N[C@H](C(=O)N[C@@H](CN)C(=O)N[C@H]1CCNC(=O)[C@H]([C@@H](C)O)NC(=O)[C@H](CCN)NC(=O)[C@H](CCN)NC(=O)[C@H](C(C)C)NC(=O)[C@@H](CC(C)C)NC(=O)[C@H](CCN)NC1=O)[C@@H](C)O [Compound 39] (Decanoyl-[Dab]T[Dap][Dab][Dab][dL]V[Dab][Dab]T; lactam 4-C)", "Test target": "Acinetobacter baumannii", "Result": "2 µg/mL"}
{"Compound": "CC[C@@H]1NC(=O)[C@@H](CC(C)C)NC(=O)[C@H](CCN)NC(=O)[C@@H](NC(=O)[C@H](CN)NC(=O)[C@@H](NC(=O)[C@H](CCN)NC(=O)c2ccc(C(F)(F)F)cc2)[C@@H](C)O)CCNC(=O)[C@H]([C@@H](C)O)NC(=O)[C@H](CCN)NC(=O)[C@H](CCN)NC1=O [Compound 74] ({Benzoyl(4-CF3)}-[Dab]T[Dap][Dab][Dab][dL][Abu][Dab][Dab]T; lactam 4-C)", "Test target": "Acinetobacter baumannii", "Result": "0.5 µg/mL"}
{"Compound": "CCCCCCCCC(=O)N[C@@H](CCN)C(=O)N[C@H](C(=O)N[C@@H](CCN)C(=O)N[C@H]1CCNC(=O)[C@H]([C@@H](C)O)NC(=O)[C@H](CCN)NC(=O)[C@H](CCN)NC(=O)[C@H]([C@@H](C)O)NC(=O)[C@@H](CC(C)C)NC(=O)[C@H](CCN)NC1=O)[C@@H](C)O [Compound 43] (Nonanoyl-[Dab]T[Dab][Dab][Dab][dL]T[Dab][Dab]T; lactam 4-C)", "Test target": "Acinetobacter baumannii", "Result": "0.5 µg/mL"}
{"Compound": "CCCCCCCC(=O)N[C@@H](CCN)C(=O)N[C@H](C(=O)N[C@@H](CN)C(=O)N[C@H]1CCNC(=O)[C@H]([C@@H](C)O)NC(=O)[C@H](CCN)NC(=O)[C@H](CCN)NC(=O)[C@H]([C@@H](C)O)NC(=O)[C@@H](Cc2ccccc2)NC(=O)[C@H](CCN)NC1=O)[C@@H](C)O [Compound 129] (Octanoyl-[Dab]T[Dap][Dab][Dab][dF]T[Dab][Dab]T; lactam 4-C)", "Test target": "Acinetobacter baumannii", "Result": "0.25 µg/mL"}
{"Compound": "CC[C@@H]1NC(=O)[C@@H](CC(C)C)NC(=O)[C@H](CCN)NC(=O)[C@@H](NC(=O)[C@H](CN)NC(=O)[C@@H](NC(=O)[C@H](CCN)NC(=O)c2cc(C)cc(Cl)c2)[C@@H](C)O)CCNC(=O)[C@H]([C@@H](C)O)NC(=O)[C@H](CCN)NC(=O)[C@H](CCN)NC1=O [Compound 114] (X19-[Dab]T[Dap][Dab][Dab][dL][Abu][Dab][Dab]T; lactam 4-C)", "Test target": "Acinetobacter baumannii", "Result": "0.5 µg/mL"}
{"Compound": "CC[C@@H]1NC(=O)[C@@H](CC(C)C)NC(=O)[C@H](CCN)NC(=O)[C@@H](NC(=O)[C@H](CN)NC(=O)[C@@H](NC(=O)[C@H](CCN)NC(=O)c2cccc(F)c2)[C@@H](C)O)CCNC(=O)[C@H]([C@@H](C)O)NC(=O)[C@H](CCN)NC(=O)[C@H](CCN)NC1=O [Compound 86] (X43-[Dab]T[Dap][Dab][Dab][dL][Abu][Dab][Dab]T; lactam 4-C)", "Test target": "Acinetobacter baumannii", "Result": "2 µg/mL"}
{"Compound": "CC[C@@H]1NC(=O)[C@@H](CC(C)C)NC(=O)[C@H](CCN)NC(=O)[C@@H](NC(=O)[C@H](CN)NC(=O)[C@@H](NC(=O)[C@H](CCN)NC(=O)Cc2ccccc2Cl)[C@@H](C)O)CCNC(=O)[C@H]([C@@H](C)O)NC(=O)[C@H](CCN)NC(=O)[C@H](CCN)NC1=O [Compound 84] (X39-[Dab]T[Dap][Dab][Dab][dL][Abu][Dab][Dab]T; lactam 4-C)", "Test target": "Acinetobacter baumannii", "Result": "2 µg/mL"}
{"Compound": "CCCCCCCC(=O)N[C@@H](CCN)C(=O)N[C@H](C(=O)N[C@@H](C(=O)N[C@H]1CCNC(=O)[C@H]([C@@H](C)O)NC(=O)[C@H](CCN)NC(=O)[C@H](CCN)NC(=O)[C@H]([C@@H](C)O)NC(=O)[C@@H](CC(C)C)NC(=O)[C@H](CCN)NC1=O)[C@H](C)O)[C@@H](C)O [Compound 15] (Octanoyl-[Dab]T[dT][Dab][Dab][dL]T[Dab][Dab]T; lactam 4-C)", "Test target": "Acinetobacter baumannii", "Result": "0.5 µg/mL"}
{"Compound": "CC[C@@H]1NC(=O)[C@@H](CC(C)C)NC(=O)[C@H](CCN)NC(=O)[C@@H](NC(=O)[C@H](CN)NC(=O)[C@@H](NC(=O)[C@H](CCN)NC(=O)c2cc(F)cc(C(F)(F)F)c2)[C@@H](C)O)CCNC(=O)[C@H]([C@@H](C)O)NC(=O)[C@H](CCN)NC(=O)[C@H](CCN)NC1=O [Compound 108] (X7-[Dab]T[Dap][Dab][Dab][dL][Abu][Dab][Dab]T; lactam 4-C)", "Test target": "Acinetobacter baumannii", "Result": "0.5 µg/mL"}
{"Compound": "CCCCCCCC(=O)N[C@@H](CCN)C(=O)N[C@H](C(=O)N[C@@H](CN)C(=O)N[C@H]1CCNC(=O)[C@H]([C@@H](C)O)NC(=O)[C@H](CCN)NC(=O)[C@H](CCN)NC(=O)[C@H](C(C)(C)C)NC(=O)[C@@H](CC(C)C)NC(=O)[C@H](CCN)NC1=O)[C@@H](C)O [Compound 47] (Octanoyl-[Dab]T[Dap][Dab][Dab][dL][Tle][Dab][Dab]T; lactam 4-C)", "Test target": "Acinetobacter baumannii", "Result": "2 µg/mL"}
